B1: glmS ribozyme (parent)
chain: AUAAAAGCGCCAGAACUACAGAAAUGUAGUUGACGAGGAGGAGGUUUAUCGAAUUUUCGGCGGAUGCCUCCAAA

# Variants of: B1
# test.protocol: kcat; higher = faster cleavage; RNA array
# cond: with glucosamine-6-phosphate
Variants at the floor of the assay were thinned out.
Listed here are variants together with their documented kcat.
Express your answer in s⁻¹, writing the number without its unit.

Use the examples below as a reference point.
>  <variant.string>
A39G C58U

>  <result.number>
7.06e-05

$$$$
>  <variant.string>
C58G C71G

>  <result.number>
2.97e-05

$$$$
>  <variant.string>
G13U C58G

>  <result.number>
0.000545

$$$$

Recorded kcat (variant A64G G66A ): 0.0158

Form field kcat, entry A6G U30A : 5.86e-05
